Measured Kd (p300 (Homo sapiens, UniProt Q09472))

Solved entries (count: 3):
Data request: // returns reported Kd for input CN1C(=O)[C@]2(Cc3cn([C@]45C[C@@]67SS[C@@](CO)(C(=O)N6[C@H]4Nc4ccccc45)N(C)C7=O)c4ccccc34)SS[C@@]1(CO)C(=O)N2C [Compound 26, chetomin, reference compound]
Data returned: 120 nM

Data request: Then what about the compound CC(C)[C@H](NC(=O)[C@H](CCC(=O)O)NC(=O)[C@@H](NC(=O)[C@H](CC(=O)O)NC(=O)[C@H](Cc1ccc(O)cc1)N1CC=CCCC(=O)N[C@@H]([C@@H](C)O)C(=O)N[C@@H](C)C1=O)C(C)C)C(=O)N[C@@H](CC(N)=O)C(=O)N[C@@H](C)C(N)=O ?
Data returned: 690 nM

Data request: Same lookup for CC(C)[C@H](NC(=O)[C@H](CCC(=O)O)NC(=O)[C@H](CS)NC(=O)[C@H](CC(=O)O)NC(=O)[C@H](Cc1ccc(O)cc1)N1CC=CCCC(=O)N[C@@H]([C@@H](C)O)C(=O)N[C@@H](C)C1=O)C(=O)N[C@@H](CC(N)=O)C(=O)N[C@@H](C)C(N)=O , please.
Data returned: 540 nM

// moving on: another record for Kd
Data request: Reported Kd for C[C@H](NC(=O)[C@H](CC(N)=O)NC(=O)[C@H](Cc1ccc(O)cc1)NC(=O)[C@H](CCC(=O)O)NC(=O)[C@H](CS)NC(=O)[C@H](CC(=O)O)NC(=O)[C@H](C)N1CC=CCCC(=O)N[C@@H]([C@@H](C)O)C(=O)N[C@@H](C)C1=O)C(=O)N[C@@H](CCCNC(=N)N)C(N)=O : what is it?
Data returned: 420 nM
